system: HCT-116 colon; assay: NCI tumour cell line growth inhibition, 48 h
measurement-name: TGI

| smiles-repr | value-reported |
| --- | --- |
| COc1cccc(-c2c(-c3ccccc3)[nH]c(C)c2C(=O)ONC(=O)c2ccccc2)c1 | 15 µM |
| COC(=O)/C(C#N)=C(\N)c1c(C)c2ccccc2oc1=N | > 100 µM |
| [CH3][Sn]([CH3])([CH3])[O][N+](=O)[O-] | > 10 µM |
| O=c1cc(-c2ccccc2)[nH]c2cc(Cl)ccc12 | > 100 µM |
| Cc1nnc(Sc2nc(C#N)c(C#N)nc2Sc2nnc(C)s2)s1 | > 64.3 µM |
| COc1cccc(/C=C\c2ccc(O)cc2)c1 | 74 µM |

----------
system: K-562 leukemia; assay: NCI tumour cell line growth inhibition, 48 h

| smiles-repr | system-under-test | GI50 |
| --- | --- | --- |
| Nc1c(F)cc(-c2nc3cc(F)ccc3[se]2)cc1Br | K-562 leukemia | 49.2 µM |
| COc1cc2c(cc1C)NC(=O)/C2=C\c1c[nH]c2ccccc12 | K-562 leukemia | 8.07 µM |
| CCN(Cc1ccc(F)cc1)c1ccc(CO)c(OC)c1 | K-562 leukemia | 20 µM |
| O=[N+]([O-])c1ccc(Sc2ccncn2)c([N+](=O)[O-])c1 | K-562 leukemia | 0.277 µM |
| C/C(=N/N=C(N)N)c1ccc(NC(=O)Nc2ccc(/C(C)=N/N=C(N)N)cc2)cc1 | K-562 leukemia | 5.84 µM |
| CCCCCC[C@H](C)NC(=O)c1ccc(Nc2nc3ccccc3c3occc23)cc1 | K-562 leukemia | 8.72 µM |
| COc1cc(/C=C/C(=O)c2c(C)nc3ccccc3c2C)ccc1OCCCN1CCN(C(=O)c2ccco2)CC1 | K-562 leukemia | 2.57 µM |
| C=CCc1c(O)c(C(=O)/C=C/c2ccccc2)c(OC)c2ccoc12 | K-562 leukemia | 2.87 µM |
| CC1(C)N=C(N)N=C(N)N1c1cccc(Br)c1 | K-562 leukemia | 0.0597 µM |
| Cc1cc(Cl)cc(Cc2cc(Cl)cc(C)c2O)c1O | K-562 leukemia | 3.08 µM |
| C1C[OH+]CC[OH+]CCNCC[OH+]CC[OH+]CCN1.Cl.[Cl-].[Pt+4] | K-562 leukemia | > 100 µM |
| C[C@@H](Oc1cc(-n2cnc3ccc(OC[C@@H](O)CO)cc32)sc1C(N)=O)c1ccccc1Cl | K-562 leukemia | 0.0804 µM |

----------
system: OVCAR-3 ovarian; test: NCI tumour cell line growth inhibition, 48 h
Documented TGI across a set of molecules

| molecule | TGI |
| --- | --- |
| Cn1cnc([N+](=O)[O-])c1Sc1nccc(=O)[nH]1 | > 100 µM |
| O=c1oc2ccc([N+](=O)[O-])cc2cc1Br | > 100 µM |
| O=C1C2C3C=CC(C2C(=O)N1CN1CCSCC1)C1C2C(=O)N(CN4CCSCC4)C(=O)C2C31 (stereo unspecified) | > 100 µM |
| COC(=O)C1C=CCON2CCc3c(n(S(=O)(=O)c4ccccc4)c4ccccc34)C12 (stereo unspecified) | > 100 µM |
| CCn1ccc(NS(=O)(=O)c2ccc(N)cc2)nc1=O | > 100 µM |
| c1ccc([P+](CCCCCC[P+](c2ccccc2)(c2ccccc2)c2ccccc2)(c2ccccc2)c2ccccc2)cc1 | > 100 µM |
| O=c1c(Cl)cc2nc3ccccc3sc-2c1Cl | 5.93 µM |
| O=C1C=CC2(C=C1)C[C@H](NC(=O)OCc1ccccc1)C(=O)O2 | 30.4 µM |
| NC(Cc1ccc(B(O)O)cc1)C(=O)NC(CO)CO (stereo unspecified) | > 100 µM |
| CN(C)c1ccc2nc(CC(O)(C(F)(F)F)C(F)(F)F)ccc2c1 | > 10 µM |
| COc1ccc(OC)c(/C=C/c2nc(SCc3ccccc3)n(-c3ccc(Cl)cc3)n2)c1 | 12 µM |

----------
tested on: A549 NSCLC; assay: NCI tumour cell line growth inhibition, 48 h; in the data active = GI50 below about 0.43 µM; inactive = the rest
Outcome codes: Y (active), N (inactive)

| smiles-repr | class-name |
| --- | --- |
| COCc1c(-c2ccc(NC(=O)Nc3cc(C(F)(F)F)ccc3F)c(F)c2)c2c(N)ncnn2c1CN1CCOCC1 | N |
| CN1CCN(Cc2ccc(NC(=O)c3cncc(C#Cc4cnc(N)c5cnccc45)c3)cc2C(F)(F)F)CC1 | N |
| CC1(C)N=C(N)N=C(N)N1c1cccc(Br)c1 | N |
| CN(C)c1ccc(N=C2C=CC(=O)c3ccccc32)cc1 | N |
| COc1cc(/C=C/C(=O)c2c(C)nc3ccccc3c2C)ccc1OCCCN1CCN(C(=O)c2ccco2)CC1 | N |
| CN1CCN(Cc2cc(NC(=O)c3cccc(C#Cc4cccc5[nH]nc(N)c45)c3)cc(C(F)(F)F)c2)CC1 | N |
| [CH3][Sn]([CH3])([CH3])[O][N+](=O)[O-] | N |
| COc1cccc(Nc2nccc(-c3cnn4ncccc34)n2)c1 | Y |
| CCn1ccc(NS(=O)(=O)c2ccc(N)cc2)nc1=O | N |
| Cn1c2ccccc2c2c(=O)n(CCCC(=O)OC(=NC3CCCCC3)NC3CCCCC3)c3c(-c4ccccc4)nnn3c21 | N |
| CN(C)CCOC(=O)Nc1nc2ccc(Sc3ccccc3)cc2[nH]1 | N |
| O=[N+]([O-])c1ccc(Sc2ccncn2)c([N+](=O)[O-])c1 | N |
| CCCN1CCC(c2ccc(Nc3nc(Nc4cc(F)ccc4C(N)=O)c4cc[nH]c4n3)c(OC)c2)CC1 | Y |
| C/C(=N/N=C(N)N)c1ccc(NC(=O)Nc2ccc(/C(C)=N/N=C(N)N)cc2)cc1 | N |

----------
system: HCC-2998 colon; test: NCI tumour cell line growth inhibition, 48 h; in the data active means GI50 below about 0.43 µM; inactive means the rest
Outcome codes: true (1) = active, false (0) = inactive

| molecule | class-name |
| --- | --- |
| [CH3][Sn]([CH3])([CH3])[O][N+](=O)[O-] | false (0) |
| Cc1ccc(OCC2OC(n3cnc4c(Br)nc(Br)nc43)CC2Oc2ccc(C)cc2)cc1 (stereo not given) | false (0) |
| O=C(/C=C/OC(=O)c1cccc(Cl)c1)c1ccc(Cl)cc1 | false (0) |
| Nc1ncnc2c1ccn2[C@@H]1O[C@H]([C@H](O)c2ccc(Cl)c(F)c2)[C@@H](O)[C@H]1O | false (0) |
| COc1cc2c(cc1C)NC(=O)/C2=C\c1c[nH]c2ccccc12 | false (0) |
| Cc1cc(Cl)cc(Cc2cc(Cl)cc(C)c2O)c1O | false (0) |
| Nc1c(F)cc(-c2nc3cc(F)ccc3[se]2)cc1Br | true (1) |
| C[C@@H](Oc1cc(-n2cnc3ccc(OC[C@@H](O)CO)cc32)sc1C(N)=O)c1ccccc1Cl | true (1) |
| C[CH2][Sn]([CH2]C)([O]C(=O)c1ccc(OC)c(OC)c1OC)[O]C(=O)c1ccc(OC)c(OC)c1OC | false (0) |
| C=CCc1c(O)c(C(=O)/C=C/c2ccccc2)c(OC)c2ccoc12 | false (0) |

----------
tested on: HCC-2998 colon; test: NCI tumour cell line growth inhibition, 48 h
Documented TGI across a set of compounds

| compound | TGI |
| --- | --- |
| CSc1c(C#N)c(S)[nH]c(=O)c1C#N | > 100 µM |
| COc1cc(/C=C2/C(=O)N(C(=O)OCc3ccccc3)C(Cc3cc(OC)c(OC)c(C)c3OC)C(=O)N2Cc2ccccc2)c(OC)c(C)c1OC (stereo not given) | > 100 µM |
| N#Cc1ccc(C2NN=CC23C(=O)c2ccccc2OC3c2ccccc2)cc1 (stereo not given) | > 100 µM |
| CC(=O)O[C@H]1CC2C=CC3C(CCC31)O2 (stereo not given in full) | > 100 µM |
| CCn1ccc(NS(=O)(=O)c2ccc(N)cc2)nc1=O | > 100 µM |
| COc1ccc(OC)c(/C=C/c2nc(SCc3ccccc3)n(-c3ccc(Cl)cc3)n2)c1 | > 100 µM |
| CCCCCCCC(=O)[O][Hg][CH2]C1COC([CH2][Hg][O]C(=O)CCCCCCC)CO1 (stereo not given) | 33.1 µM |
| c1ccc([P+](c2ccccc2)(c2ccccc2)C2c3ccccc3-c3ccccc32)cc1 | 9.62 µM |
| C#CC1NC(=O)C1N(CC)CC (stereo not given) | > 100 µM |
| COc1cc(C=O)cc(O)c1O | > 100 µM |
| COc1cc2c(cc1C)NC(=O)/C2=C\c1c[nH]c2ccccc12 | 71.1 µM |
| CCCCC(=O)Nc1ccc2c(C)cc(-c3ccc(-c4cc(-c5ccc(C)cc5)cc(-c5ccc(-c6cc(C)c7ccc(NC(=O)CCCC)nc7n6)cc5)n4)cc3)nc2n1 | > 100 µM |
| CCCN1CCC(c2ccc(Nc3nc(Nc4cc(F)ccc4C(N)=O)c4cc[nH]c4n3)c(OC)c2)CC1 | 5.5 µM |
| Cn1cnc([N+](=O)[O-])c1Sc1nccc(=O)[nH]1 | > 100 µM |
| Cc1cc(Cl)ccc1NC(=O)C(=O)C(C(=O)c1ccccc1)C1OC(=O)c2ccccc21 (stereo not given) | > 100 µM |
| O=c1cc(-c2ccccc2)[nH]c2cc(Cl)ccc12 | 4.76 µM |
| CC1=C([Se]CC(OC(=O)[C@@H](CO)NC(=O)OC(C)(C)C)C(=O)NCCCCCC(=O)OCc2ccccc2)C(=O)c2ccccc2C1=O (stereo not given in full) | 3.48 µM |
| O=C(O[C@H]1CCN2C[C@H]3C[C@H](CN4C(=O)CCC[C@H]34)[C@@H]2C1)c1ccc(O)cc1 | > 100 µM |
| COc1cccc(-c2c(-c3ccccc3)[nH]c(C)c2C(=O)ONC(=O)c2ccccc2)c1 | 27.4 µM |
| CCCCN(CCCC)CCCn1cnc2ncccc2c1=O | > 100 µM |
